- Protocol description: Pharmacokinetic study of PDC in rat plasma after oral administration of pure PDC or IRE (LC-MS/MS)
- Format: in vivo, Sprague-Dawley rats
- Test parameters: male, Sprague-Dawley, PDC in rat plasma, 42 mg/kg PDC (IRE dosage equivalent to PDC dosage), n = 6, mean ± SD
Measurement label: Cmax (ng/mL)
Kindly answer with a numeric value in ng/mL, unit omitted.

q: Give the reported Cmax for this molecule. C[C@@H]1CC[C@]2(C(=O)O[C@@H]3O[C@H](CO)[C@@H](O)[C@H](O)[C@H]3O)CC[C@]3(C)C(=CC[C@@H]4[C@@]5(C)CC[C@H](O)[C@@](C)(CO)[C@@H]5CC[C@]43C)[C@@H]2[C@]1(C)O [PDC, Pedunculoside]
a: 95.2
